- assayedTarget: T1, human protein C (PC) zymogen (human, UniProt P04070 43-197; P04070 200-461)
- T1 construct: Bought
- T1 sequence (P04070 43-197, chain 1 of 2): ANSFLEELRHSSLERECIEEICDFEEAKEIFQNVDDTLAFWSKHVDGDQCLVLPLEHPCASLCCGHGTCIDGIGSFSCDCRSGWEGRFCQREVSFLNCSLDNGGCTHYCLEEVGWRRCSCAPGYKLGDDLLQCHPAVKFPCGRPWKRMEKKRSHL
- T1 sequence (P04070 200-461, chain 2 of 2): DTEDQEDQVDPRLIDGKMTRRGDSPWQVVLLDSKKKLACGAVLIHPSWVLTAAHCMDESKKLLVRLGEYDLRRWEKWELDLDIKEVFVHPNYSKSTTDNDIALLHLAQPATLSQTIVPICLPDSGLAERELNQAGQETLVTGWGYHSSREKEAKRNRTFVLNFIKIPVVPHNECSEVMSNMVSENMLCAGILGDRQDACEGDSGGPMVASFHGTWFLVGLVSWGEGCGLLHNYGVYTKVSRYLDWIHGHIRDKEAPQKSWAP
- method: ELISA screen, PC-coated wells, OD450, n=2 [Continued]
observedProperty: binding result

Example cases with answers are listed next.
- binder: "SR16983-R3-P3-E02 (VHH) VHH: QLQLVESGGGLVQAGGSLRLSCVLSGNTFGRNVITWYRQPPGKQREFIAMITSSGSTRYADSVKGRFTMSRDTAKNTAFLQMSSLKVEDTAVYYCWTAIAGQGEYWGQGTQVTVSS"
  binding result: "no binding"
- binder: "SR16983-R3-P5-D08 (VHH) VHH: EVQLVESGGGLVQAGGSLRLSCTGSGSTFSVTAGGWYRQAPGKQRELVADIANDGSTTYLDFVKGRFTISRDNAKNSVDLQMNSLKPEDTAVYYCFVVGISDSTPRPRAYWGQGTQVTVSS"
  binding result: "no binding"
- binder: "SR16983-R2-P3-E05 (VHH) VHH: EVQLVESGGGLVQAGGSLRLSCAASGLTASTYVMAWFRQAPGKERDFVSLIDWRGEPTYANSVKGRFTISRDNGKNTVFLQMNSLRPEDTALYYCAVRASPGYVASLYPYWGRGTQVTVSS"
  binding result: "no binding"
- binder: "SR16983-R2-P3-E04 (VHH) VHH: QLQLVESGGGLVQAGGSLRLSCAASGRTVGSYVMGWFRQAPGKEREFLAASSRSTGNTVYADSVKGRFSISRDDAKNTLYLQMNSLKPEDTAVYYCATRASINYNYANWPYWGQGTQVTVSS"
  binding result: "no binding"
- binder: "SR16983-R2-P4-E11 (VHH) VHH: QLQLVESGGGLVQAGGSLRLSCAASGTTFSFVYMGWYRQAPGNQRDLVARISRDGSTNYLDSVKGRFTISGDNAKNTVYLQMNSLKPEDTARYYCFYNGHLNKWGRGTQVTVSS"
  binding result: "no binding"
- binder: "SR16983-R2-P3-E06 (VHH) VHH: QLQLVESGGGLVQAGGSLRLSCVASGRTVGSYAVAWFRQAPGKERELLAASSRSTGNTVYADSVKGRFTIARDDAKNTLYLQMNSLKPEDTAVYYCAARASINYNYANWPYWGQGTQVTVSS"
  binding result: "no binding"
- binder: "SR16983-R3-P3-H10 (VHH) VHH: QVQLVESGGGLVQAGDSLRLSCAASTRTVGTYVMGWFRQAPGKERELVAASSRSTGNTVYPDSVKGRFTVSRDDAKNALYLQMNSLKPEDTAIYYCAARASINYNYANWPYWGQGTQVTVSS"
  binding result: "no binding"

API: the following record is the query input.
Task item: What value of measured binding result is listed for SR16983-R3P2D06 (VHH) VHH: QLQLVESGGGLVQPGGSLRLSCAASGRTVGSYVMGWFRQAPGKERELLAASSRSTGNTVYADSVKGRFTISRDDAKNTLYLQMNSLKPEDTAVYYCAARASINYNYANWPYWGQGTQVTVSS ?
Reply: no binding

Entry source: patent US20250163183A1
